assaySystem: T1, human CD112R on CHO-CD112R cells (human, UniProt Q6DKI7 41-326)
T1 construct: whole, on cells; also called hCD112R; PVRIG
T1 sequence (looked up): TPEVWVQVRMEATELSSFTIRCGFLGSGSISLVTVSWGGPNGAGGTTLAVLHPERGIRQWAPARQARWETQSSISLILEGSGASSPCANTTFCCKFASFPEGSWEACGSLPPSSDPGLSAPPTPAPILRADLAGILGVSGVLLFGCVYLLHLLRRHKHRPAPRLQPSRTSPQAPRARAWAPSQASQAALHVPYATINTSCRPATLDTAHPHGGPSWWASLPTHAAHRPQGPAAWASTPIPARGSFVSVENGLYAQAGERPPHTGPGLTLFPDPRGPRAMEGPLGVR
assayNotes: FACS on CHO-CD112R cells; EC50 Ref/EC50 antibody
readout: Relative activity (%)
I only need the number, in %, no unit after it.

As a guide, the following entries are already answered.
| binder | unitsText | Relative activity (%) |
| --- | --- | --- |
| Chi-55 (antibody, V domains shown, chimeric) VH: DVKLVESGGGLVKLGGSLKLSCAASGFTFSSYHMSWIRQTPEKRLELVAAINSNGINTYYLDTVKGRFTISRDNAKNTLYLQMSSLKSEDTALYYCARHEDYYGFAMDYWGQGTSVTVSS VL: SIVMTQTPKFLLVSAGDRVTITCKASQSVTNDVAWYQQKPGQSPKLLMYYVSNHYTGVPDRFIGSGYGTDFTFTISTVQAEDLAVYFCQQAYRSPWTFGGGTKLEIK | % | 3050 |
| Chi-69 (antibody, V domains shown, chimeric) VH: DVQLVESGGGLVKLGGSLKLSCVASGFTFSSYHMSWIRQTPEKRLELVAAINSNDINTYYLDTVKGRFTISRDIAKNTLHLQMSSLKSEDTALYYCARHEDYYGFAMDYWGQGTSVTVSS VL: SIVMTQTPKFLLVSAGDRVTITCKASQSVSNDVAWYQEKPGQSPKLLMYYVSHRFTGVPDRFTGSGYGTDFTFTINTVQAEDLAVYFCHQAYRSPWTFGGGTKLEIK | % | 1630 |
| Chi-53 (antibody, V domains shown, chimeric) VH: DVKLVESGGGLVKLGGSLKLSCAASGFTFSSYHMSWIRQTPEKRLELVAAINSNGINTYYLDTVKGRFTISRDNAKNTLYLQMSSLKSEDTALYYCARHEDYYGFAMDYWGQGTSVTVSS VL: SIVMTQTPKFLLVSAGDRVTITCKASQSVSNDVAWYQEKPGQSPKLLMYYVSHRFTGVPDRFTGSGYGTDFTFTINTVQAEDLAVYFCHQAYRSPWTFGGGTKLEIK | % | 268 |
| Chi-54 (antibody, V domains shown, chimeric) VH: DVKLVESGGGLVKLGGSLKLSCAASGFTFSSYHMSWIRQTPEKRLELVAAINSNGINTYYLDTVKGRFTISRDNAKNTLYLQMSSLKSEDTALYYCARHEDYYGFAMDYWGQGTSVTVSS VL: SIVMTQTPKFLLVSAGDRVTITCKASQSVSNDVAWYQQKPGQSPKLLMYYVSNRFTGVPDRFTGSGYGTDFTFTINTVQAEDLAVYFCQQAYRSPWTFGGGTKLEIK | % | 3520 |

Query binder follows.
Asked: # input binder: Chi-61 (antibody, V domains shown, chimeric) VH: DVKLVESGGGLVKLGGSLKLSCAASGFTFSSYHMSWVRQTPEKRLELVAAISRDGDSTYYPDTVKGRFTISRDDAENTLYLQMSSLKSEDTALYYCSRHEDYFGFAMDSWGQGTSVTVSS VL: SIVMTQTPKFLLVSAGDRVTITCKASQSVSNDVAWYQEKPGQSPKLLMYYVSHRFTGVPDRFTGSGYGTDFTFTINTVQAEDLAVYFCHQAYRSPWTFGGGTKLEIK ; wanted: its Relative activity (%)
Given back: 3990
